ASSAY_PROCEDURE: Time-course of drug levels in adult and embryonic mouse plasma, brain and liver after a single subcutaneous injection (LC-MS/MS)
TEST_CONTEXT: female, mouse, brain (adult), subcutaneous, 10 mg/kg

COMPOUND: O=C1CC[C@@]2(O)[C@H]3Cc4ccc(O)c5c4[C@@]2(CCN3CC2CC2)[C@H]1O5 [Naltrexone, naltrexone, reference compound]
UOM: ng/g
concentration at 2 h: 250

====

ASSAY_PROCEDURE: Time-course of drug levels in adult and embryonic mouse plasma, brain and liver after a single subcutaneous injection (LC-MS/MS)
TEST_CONTEXT: female, mouse, liver (adult), subcutaneous, 10 mg/kg

COMPOUND: O=C1CC[C@@]2(O)[C@H]3Cc4ccc(O)c5c4[C@@]2(CCN3CC2CC2)[C@H]1O5 [Naltrexone, naltrexone, reference compound]
concentration at 4 h: 32 ng/g

====

ASSAY_PROCEDURE: Time-course of drug levels in adult and embryonic mouse plasma, brain and liver after a single subcutaneous injection (LC-MS/MS)
TEST_CONTEXT: mouse, embryo liver, subcutaneous, 10 mg/kg

COMPOUND: O=C1CC[C@@]2(O)[C@H]3Cc4ccc(O)c5c4[C@@]2(CCN3CC2CC2)[C@H]1O5 [Naltrexone, naltrexone, reference compound]
concentration at 45 min [ng/g]: 3190

====

ASSAY_PROCEDURE: Time-course of drug levels in adult and embryonic mouse plasma, brain and liver after a single subcutaneous injection (LC-MS/MS)
TEST_CONTEXT: mouse, embryo brain, subcutaneous, 10 mg/kg

COMPOUND: O=C1CC[C@@]2(O)[C@H]3Cc4ccc(O)c5c4[C@@]2(CCN3CC2CC2)[C@H]1O5 [Naltrexone, naltrexone, reference compound]
UOM: ng/g
concentration at 45 min: 2610

====

ASSAY_PROCEDURE: Time-course of drug levels in adult and embryonic mouse plasma, brain and liver after a single subcutaneous injection (LC-MS/MS)
TEST_CONTEXT: female, mouse, liver (adult), subcutaneous, 10 mg/kg

COMPOUND: O=C1CC[C@@]2(O)[C@H]3Cc4ccc(O)c5c4[C@@]2(CCN3CC2CC2)[C@H]1O5 [Naltrexone, naltrexone, reference compound]
concentration at 20 min / ng/g: 2100

====

ASSAY_PROCEDURE: Time-course of drug levels in adult and embryonic mouse plasma, brain and liver after a single subcutaneous injection (LC-MS/MS)
TEST_CONTEXT: female, mouse, in vivo, 10 mg/kg

COMPOUND: O=C1CC[C@@]2(O)[C@H]3Cc4ccc(O)c5c4[C@@]2(CCN3CC2CC2)[C@H]1O5 [Naltrexone, naltrexone, reference compound]
concentration at 4 h [ng/g]: 4

====

ASSAY_PROCEDURE: Time-course of drug levels in adult and embryonic mouse plasma, brain and liver after a single subcutaneous injection (LC-MS/MS)
TEST_CONTEXT: mouse, embryo liver, subcutaneous, 10 mg/kg

MOLECULE: O=C1CC[C@@]2(O)[C@H]3Cc4ccc(O)c5c4[C@@]2(CCN3CC2CC2)[C@H]1O5 [Naltrexone, naltrexone, reference compound]
concentration at 2 h: 620 ng/g

====

ASSAY_PROCEDURE: Time-course of drug levels in adult and embryonic mouse plasma, brain and liver after a single subcutaneous injection (LC-MS/MS)
TEST_CONTEXT: female, mouse, brain (adult), subcutaneous, 10 mg/kg
EXPERIMENTAL_READOUT: concentration at 20 min (ng/g)

MOLECULE: O=C1CC[C@@]2(O)[C@H]3Cc4ccc(O)c5c4[C@@]2(CCN3CC2CC2)[C@H]1O5 [Naltrexone, naltrexone, reference compound]
NUMERIC_VALUE: 3230

====

ASSAY_PROCEDURE: Time-course of drug levels in adult and embryonic mouse plasma, brain and liver after a single subcutaneous injection (LC-MS/MS)
TEST_CONTEXT: female, mouse, brain (adult), subcutaneous, 10 mg/kg

COMPOUND: O=C1CC[C@@]2(O)[C@H]3Cc4ccc(O)c5c4[C@@]2(CCN3CC2CC2)[C@H]1O5 [Naltrexone, naltrexone, reference compound]
UOM: ng/g
concentration at 45 min: 1470

====

ASSAY_PROCEDURE: Time-course of drug levels in adult and embryonic mouse plasma, brain and liver after a single subcutaneous injection (LC-MS/MS)
TEST_CONTEXT: female, mouse, in vivo, 10 mg/kg

COMPOUND: O=C1CC[C@@]2(O)[C@H]3Cc4ccc(O)c5c4[C@@]2(CCN3CC2CC2)[C@H]1O5 [Naltrexone, naltrexone, reference compound]
concentration at 2 h: 130 ng/g

====

ASSAY_PROCEDURE: Time-course of drug levels in adult and embryonic mouse plasma, brain and liver after a single subcutaneous injection (LC-MS/MS)
TEST_CONTEXT: female, mouse, liver (adult), subcutaneous, 10 mg/kg
EXPERIMENTAL_READOUT: concentration at 45 min (ng/g)

COMPOUND: O=C1CC[C@@]2(O)[C@H]3Cc4ccc(O)c5c4[C@@]2(CCN3CC2CC2)[C@H]1O5 [Naltrexone, naltrexone, reference compound]
EXPERIMENTAL_READOUT: concentration at 45 min
UOM: ng/g
NUMERIC_VALUE: 1390

Sourced from patent US12161641B2
